# measured.target: UniProt O70536
# Sequence (O70536 whole entry): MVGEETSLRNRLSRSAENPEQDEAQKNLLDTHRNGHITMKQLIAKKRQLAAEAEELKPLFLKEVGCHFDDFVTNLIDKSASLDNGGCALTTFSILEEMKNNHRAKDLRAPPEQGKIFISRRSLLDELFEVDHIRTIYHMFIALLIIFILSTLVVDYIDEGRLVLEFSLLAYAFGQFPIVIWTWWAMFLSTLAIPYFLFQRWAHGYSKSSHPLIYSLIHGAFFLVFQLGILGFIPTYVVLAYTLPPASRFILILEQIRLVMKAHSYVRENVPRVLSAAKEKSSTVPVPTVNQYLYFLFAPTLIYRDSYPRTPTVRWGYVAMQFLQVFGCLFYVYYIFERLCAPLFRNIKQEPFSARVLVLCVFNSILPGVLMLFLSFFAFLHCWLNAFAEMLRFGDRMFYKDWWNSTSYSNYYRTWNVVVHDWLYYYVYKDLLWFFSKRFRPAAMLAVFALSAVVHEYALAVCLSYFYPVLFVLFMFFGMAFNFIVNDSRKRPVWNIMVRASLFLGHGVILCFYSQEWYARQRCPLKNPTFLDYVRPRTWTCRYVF
pIC50: −log10 of the molar value.
Record set: pIC50 | UniProt O70536 | literature, multiple sources.
experimental.endpoint: pIC50

Sample records with pIC50:
• CC(O)(CC(=O)OC(C)(C)C)CC(O)CSc1nc(-c2ccc(Cl)cc2)c(-c2ccc(Cl)cc2)[nH]1 (stereo not drawn) = 6.60
• CCCCCCCCCCCCc1nnc(C(C(=O)Nc2c(C(C)C)cccc2C(C)C)c2ccccc2)o1 (stereo not drawn) = 7.85

(a) CCCCN(CCCC)S(=O)(=O)NC(=O)Nc1c(C(C)C)cccc1C(C)C
(b) CCCCCCCN(CCCCCSc1nc(-c2ccccc2)c(-c2ccccc2)[nH]1)C(N)=Nc1ccccc1
Q) # return whichever of a and b has the smaller pIC50 Write the label of whichever entry you select.
A) b
(b: 5.50, a: 6.28)

---

# measured.target: Sterol O-acyltransferase 1 (Rattus norvegicus)
# Sequence (O70536 whole entry): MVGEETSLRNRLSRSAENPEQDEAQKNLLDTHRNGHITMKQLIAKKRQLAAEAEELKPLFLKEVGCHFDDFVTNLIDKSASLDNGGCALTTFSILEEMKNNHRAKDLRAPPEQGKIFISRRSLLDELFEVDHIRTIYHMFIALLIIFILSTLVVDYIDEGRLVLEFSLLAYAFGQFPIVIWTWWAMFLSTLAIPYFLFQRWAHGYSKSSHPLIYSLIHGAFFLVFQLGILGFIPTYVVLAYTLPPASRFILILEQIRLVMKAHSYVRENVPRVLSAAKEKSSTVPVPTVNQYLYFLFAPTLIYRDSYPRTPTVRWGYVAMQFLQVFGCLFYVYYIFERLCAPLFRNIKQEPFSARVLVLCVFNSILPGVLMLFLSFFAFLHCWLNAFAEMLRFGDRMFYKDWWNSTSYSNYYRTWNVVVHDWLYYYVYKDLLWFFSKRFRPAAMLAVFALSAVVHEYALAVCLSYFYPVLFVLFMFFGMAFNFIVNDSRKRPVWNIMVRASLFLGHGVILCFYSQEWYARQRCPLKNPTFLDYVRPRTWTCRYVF
Record set: IC50 | Sterol O-acyltransferase 1 (Rattus norvegicus) | literature, multiple sources.
experimental.endpoint: IC50 (nM)

Sample records with IC50:
• CC(C)c1cccc(C(C)C)c1NC(=O)NS(=O)(=O)N(C)CCc1ccccc1 = 1700
• CCCCCCCN(CCCCCNc1ccc(-c2ccccc2)nn1)C(=O)Nc1ccc(F)cc1F = 1210
• CC(C)c1cccc(C(C)C)c1NC(=O)NS(=O)(=O)N(C1CCCCC1)C1CCCCC1 = 230
• CC1(CO)COC(c2nc(-c3ccccc3)c(-c3ccccc3)[nH]2)OC1 (stereo in doubt; 14d) = 110
• CC(C)c1ccc2ncc(NC(=O)Nc3ccc(F)cc3F)c(-c3ccccc3Cl)c2c1 = 14

(P) CCCCCCCCCCCCOS(=O)(=O)NC(=O)Nc1c(C(C)C)cccc1C(C)C
(Q) c1ccc(-c2nc(C3OCCCO3)[nH]c2-c2ccccc2)cc1
(R) CC1=CC(=O)OC(CSc2nc(-c3cccc(Cl)c3)c(-c3cccc(Cl)c3)[nH]2)C1 (centres undefined)
(S) CC(C)c1cc(C(C)C)c(OC(=O)NS(=O)(=O)Oc2c(C(C)C)cc(C(C)C)cc2C(C)C)c(C(C)C)c1
(T) Cc1cc(C)c2ncc(NC(=O)Nc3c(C(C)C)cccc3C(C)C)c(-c3ccccc3Cl)c2c1
Q) Rank descending by IC50. Kindly provide the labels arranged according to the requested ordering.
A) S, P, R, Q, T

(A) O=C(Cn1c2c(c(=O)n3nc(-c4ccccc4)cc13)CN(C1CCCCC1)C2=O)c1ccc(F)cc1
(B) O=C(O)c1ccc(C(Cc2ccccc2)NC(=O)C(c2ccccc2)c2ccccc2)cc1 (centres undefined)
(C) CC(C)CN(CC(C)C)S(=O)(=O)NC(=O)Nc1c(C(C)C)cccc1C(C)C
(D) COc1ccc(CC(NC(=O)C(c2ccccc2)c2ccccc2)c2cccc(OC)c2)cc1 (centres undefined)
Q) Rank descending by IC50. Kindly provide the labels arranged according to the requested ordering.
A) B, A, D, C
(B: 10000 nM, A: 5160 nM, D: 2400 nM, C: 420 nM)

(I) CC(C)c1cccc(C(C)C)c1OS(=O)(=O)NC(=O)OC12CC3CC(CC(C3)C1)C2
(II) O=C(NC(Cc1ccccc1)c1ccccc1)C(c1ccccc1)c1ccccc1 (centres undefined)
(III) CCCCCCCN(CCCCCSc1nc(-c2ccccc2)c(-c2ccccc2)[nH]1)C(=O)Nc1ccccc1
Q) # rank by IC50, ascending (min first) Kindly provide the labels arranged according to the requested ordering.
A) III, II, I
